Reported EC50 values are given for each entry in this list.
Measurement Target: ferroportin tagged at the C-terminus with green fluorescent protein (Fpn-GFP) (Mus musculus, UniProt Q9JHI9)
Construct: expressed in transfected cells; host or cells: ECR293/Fpn-GFP (stably transfected, ponasterone-inducible)
Sequence (Q9JHI9 whole entry): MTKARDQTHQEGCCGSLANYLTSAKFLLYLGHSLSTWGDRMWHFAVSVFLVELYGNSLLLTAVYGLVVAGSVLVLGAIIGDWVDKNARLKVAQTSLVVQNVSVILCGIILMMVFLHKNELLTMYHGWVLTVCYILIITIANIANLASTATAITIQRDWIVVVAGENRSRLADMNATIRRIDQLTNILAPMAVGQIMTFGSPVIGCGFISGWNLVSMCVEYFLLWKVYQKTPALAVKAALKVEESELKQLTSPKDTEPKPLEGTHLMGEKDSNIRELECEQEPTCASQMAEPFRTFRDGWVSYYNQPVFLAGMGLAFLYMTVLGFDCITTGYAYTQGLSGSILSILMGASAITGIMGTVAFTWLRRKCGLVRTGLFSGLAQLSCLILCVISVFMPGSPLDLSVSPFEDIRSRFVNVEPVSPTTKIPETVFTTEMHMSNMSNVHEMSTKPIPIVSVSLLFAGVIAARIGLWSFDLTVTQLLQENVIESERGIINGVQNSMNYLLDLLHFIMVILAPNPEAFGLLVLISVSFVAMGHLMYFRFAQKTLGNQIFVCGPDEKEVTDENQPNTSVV
Procedure Summary: Flow cytometry of ferroportin-GFP degradation in ECR293/Fpn-GFP cells
Assay type: cell-based
Condition Details: read-out: EC50
Starred links: 1 amine or outer side, 2 acyl side, 3 side chain; linkers in the order of their positions; H or OH if unused. Positions of bridges follow the written chain, without caps; N, C: chain ends. Non-standard residues stand in square brackets, D forms with d. Residues, ends and D or L forms follow the SMILES beside them. dDip = N[C@@H](C(=O)O)C(c1ccccc1)c1ccccc1; Dip = N[C@H](C(=O)O)C(c1ccccc1)c1ccccc1; X2 = O=C(C1CCC(CN[*:1])CC1)[*:2]; Cysteamide = C(CS[*:3])N[*:1]; Inp = O=C(O)C1CCNCC1
Measurement Type: EC50 (µM)

INSERT INTO results (compound, measurement_type, val) VALUES
  ('N=C(N)NCCC[C@@H]1NC(=O)C2CCC(CC2)CNC(=O)[C@@H](C(c2ccccc2)c2ccccc2)NC(=O)[C@H]2CCCN2C(=O)[C@@H](N)CSSCCNC(=O)[C@H](C(c2ccccc2)c2ccccc2)NC(=O)C2CCN(CC2)C(=O)C2CCC(CC2)CNC1=O [PR-3] (H-C[dP][dDip][X2]R[X2][Inp][Dip]-Cysteamide; disulfide 1-C)', 'EC50', 1),
  ('N=C(N)NCCC[C@@H]1NC(=O)C2CCC(CC2)CNC(=O)[C@@H](C(c2ccccc2)c2ccccc2)NC(=O)[C@@H]2CCCN2C(=O)[C@@H](N)CSSCCNC(=O)[C@H](C(c2ccccc2)c2ccccc2)NC(=O)C2CCN(CC2)C(=O)C2CCC(CC2)CNC1=O [PR-2] (H-CP[dDip][X2]R[X2][Inp][Dip]-Cysteamide; disulfide 1-C)', 'EC50', 2),
  ('N=C(N)NCCC[C@@H]1NC(=O)C2CCC(CC2)CNC(=O)[C@@H](C(c2ccccc2)c2ccccc2)NC(=O)CNC(=O)[C@@H](N)CSSCCNC(=O)[C@H](C(c2ccccc2)c2ccccc2)NC(=O)C2CCN(CC2)C(=O)C2CCC(CC2)CNC1=O [PR-4] (H-CG[dDip][X2]R[X2][Inp][Dip]-Cysteamide; disulfide 1-C)', 'EC50', 2);
